Test system: tAkt in A375 cells
Assay: HTRF assay, tAkt in A375
Type: cell-based
Details: Homo sapiens, A-375, read-out: tAkt IC50
pIC50: −log10 of the molar value.
Listing of recorded pIC50 by entry.

O=S(=O)(NN=C(c1ccc(O)cc1)c1ccc(O)cc1)c1ccc(Cl)cc1: < 3.00
Oc1ccc(C(=NNc2ccc(F)cc2)c2ccc(O)cc2)cc1: < 3.00
Oc1ccc(C(=NOCc2ccccc2)c2ccc(O)cc2)cc1: 3.13

Value of pIC50 reported for the compound Oc1ccc(C(=NNc2ccc(C(F)(F)F)cc2)c2ccc(O)cc2)cc1 is < 3.00
